conditions: in n-butyl acetate, 283.15 K
observed_property: solubility (mole fraction)
The answer should be written as a number, with no unit following it.

Task: Look at this compound and give its reported solubility (mole fraction). Cn1nccc1O
Result: 0.00102

----------
details: in methyl acetate, 303.15 K
observed_property: solubility (mole fraction)
The answer should be written as a number, with no unit following it.

Task: Look at this molecule and give its reported solubility (mole fraction). Cn1nccc1O
Result: 0.0187

----------
conditions: in n-pentyl acetate, 313.15 K
observed_property: solubility (mole fraction)
The answer should be written as a number, with no unit following it.

Task: Look at this molecule and give its reported solubility (mole fraction). Cn1nccc1O
Result: 0.0201
